system: RPMI-8226 leukemia; assay: NCI-60 one-dose screen, 48 h; conditions: 10 µM
Compounds without any hit were thinned out: in the full panel of roughly 83,000, 20% have a hit. Calls of active or inactive are those of the source. Rule for the calls: active = growth percent below 10; inactive = the rest.
Classes used: label 1 for active, label 0 for inactive

compound	class-assignment
CNC(=O)c1cc(Oc2ccc3c(c2)sc2nc(-c4ccc(NC(=O)Nc5ccc(Cl)c(C(F)(F)F)c5)cc4)cn23)ccn1	label 0
C[C@@H](O)[C@H]1C(=O)N2C(C(=O)O)=C(SCCN=CN)C[C@H]12	label 1
Oc1ccc(-c2[nH]c3ccccc3c2-c2nc3ccccc3o2)cc1	label 0
CC(=O)[C@H]1CC[C@]2(C)[C@@H]1CC[C@@H]1[C@@]3(C)CC(CCC#N)(CCC#N)C(=O)C(C)(C)[C@@H]3CC[C@]12C	label 0
O=C1/C=C/[C@@H](O)[C@@H]2C[C@@H](O)C[C@H]2/C=C/CCC[C@H](CCc2ccc(NC(=S)Nc3ccc4c(c3)C(=O)OC43c4ccc(O)cc4Oc4cc(O)ccc43)cc2)O1	label 0
Cc1ccc(-n2nnnc2N)c(C)c1	label 0
COc1cc(N)c2ncccc2c1SC	label 0
Cc1nn(-c2ccc(-c3ccc(OC(F)(F)F)cc3)cc2)c2nc(Cc3ccccc3)nc(N)c12	label 0
Cc1ccc2nc(Cl)c(-c3nc4ccccc4o3)cc2c1	label 0
NS(=O)(=O)Oc1ccc2c(ccn2C(=O)C23CC4CC(CC(C4)C2)C3)c1	label 0
O=C(CCc1nnc2sc(-c3cc(O)c(O)c(O)c3)nn12)c1nc2ccccc2[nH]1	label 0
Brc1ccc2c(c1)-c1ccccc1C1=NCCN12	label 1
CCCCCOC(=O)Nc1nc(=O)n(C2O[C@H](C)[C@@H](O)[C@H]2O)cc1F (some centres undefined)	label 0
COc1cc(-c2nn(-c3ccc(NC(=O)NCCCNC(=O)c4ccccc4)cc3)cc2-c2ccncc2)ccc1Cl	label 1
COc1cc(/C=C/c2cc(/C=C/c3ccc(O)c(OC)c3)n(C(=O)Nc3ccc(C)cc3)n2)ccc1O	label 1
COc1ccc2c(c1)C(=O)/C(=C/c1ccc([N+](=O)[O-])o1)O2	label 1
O=C1/C(=C/c2ccc3c(c2)OCO3)SC(=S)N1C1c2ccccc2Oc2ccccc21	label 0
COc1ccc(/C=C2\CCCC3=C2N=C2SC(C)=CN2C3c2ccc(OC)cc2)cc1 (centres undefined)	label 0
Cc1cc(=O)n2nnc3cc(C(F)(F)F)ccc3n12	label 0

* * *

test system: MDA-MB-435 melanoma; experiment: NCI-60 one-dose screen, 48 h (100 = growth as untreated, 0 = no growth, -100 = all killed); settings: 10 µM
This is part of a sample that, as a whole, favours compounds with a hit. Of some 83,000 tested, about 20% had one in any assay.

molecule	growth [%]
CN(C)c1nc(N)c2nccnc2n1	106
COc1cc(C(=O)/C(C)=C/c2c[nH]c3ccccc23)cc(OC)c1OC	5.74
CCOC(=O)c1cc(C(=O)c2cc(OC)cc(OC)c2)n2nc(C)ccc12	-16.2
O=C(NCCNC(=O)c1ccc(F)cc1)Nc1ccc(-n2cc(-c3ccncc3)c(-c3ccc(Cl)c(O)c3)n2)cc1	-5.7
CCN(CC)CCOc1cccc2c1C(=O)c1cccc(OCCN(CC)CC)c1C2=O	32.5
CC(C)(C)c1ccc(S(=O)(=O)Oc2ccc(NC(=O)C3CCCCC3)cc2)cc1	59.6
COc1ccc2c(c1)C(CC(=O)NN)CCC2 (stereo unspecified)	103
O=C(CSc1nnc(-c2ccc(Cl)cc2)o1)Nc1ccc(C(=O)/C=C/c2ccc(Cl)cc2)cc1	98.1
OCC1OC(n2cnc3c(NCc4ccco4)ncnc32)C(O)C1O (stereo unspecified)	17.2
S=C(NCc1ccccc1)NCc1ccccc1	101
CCOC(=O)/C(=C(\C)N)C1CC(=O)NC1=O (stereo unspecified)	100

* * *

test system: SK-MEL-2 melanoma; experiment: NCI-60 one-dose screen, 48 h (100 = growth as untreated, 0 = no growth, -100 = all killed); details: 10 µM
Compounds without any hit were thinned out: in the full panel of roughly 83,000, 20% have a hit.
measured-attribute: growth (%)

compound	scale-unit	experimental-value
NS(=O)(=O)Oc1ccc(NC(=O)C2CCCCCC2)cc1	%	106
CCn1cc(CNc2ccc(C(=O)Nc3ccc4ccccc4c3)cc2)c(C)n1	%	61
Cc1cc(CSc2ccccc2C(=O)N2CC=C(c3ccccc3)CC2)on1	%	94.1
O=S(=O)(Oc1ccc(-c2ccc3sccc3c2)cc1)c1ccccc1	%	111
COc1cc2cc(Oc3ccc(NC(=O)Nc4cccc(C(F)(F)F)c4)cc3)c(C)nc2cc1OC	%	-35.8
C[C@@H](C[C@H](CCO)c1ccccc1)c1ccc2ccccc2c1	%	-0.232
CC(C)(C)OC(=O)N1CCc2c(sc3ncnc(N/N=C/c4ccc(Br)cc4)c23)C1	%	68.4
Cc1ccc(C2NC(=S)N3C(c4ccc(C)cc4)NC(=S)N23)cc1 (configuration not stated)	%	-32.9
COc1ccc(C2CC(c3cc(OC)c(OC)c(OC)c3)=NN2)cc1 (configuration not stated)	%	87.6
CN1CCc2c(sc3nc4n(-c5ccc(Cl)cc5)cnn4c(=O)c23)C1	%	118
Cc1cc(SCc2ccccc2)nc(N)n1	%	119
COc1cc2c(Nc3ccc(S(N)(=O)=O)cc3)ncnc2c(OC)c1OC	%	92.4
CCc1ccc(-c2ccc(-n3nc(C)c4c(N)nc(Cc5ccccc5)nc43)cc2)cc1	%	36
COc1ccc(-c2onc(N)c2-c2cc(OC)c3c(c2)OCO3)cc1	%	13.6
Cc1ccc2nc(Cl)c(-c3nc4ccccc4o3)cc2c1	%	94.2
NC1=CC(=O)C(=O)c2cccnc21	%	77.9
c1cnc2[nH]cc(-c3nc(-c4ccsc4)cs3)c2c1	%	102
COc1ccc(-c2nc(-c3nc4ccc(C)cc4[nH]3)cc3c2[nH]c2ccccc23)cc1	%	9.81
COc1ccc(-c2nn(-c3cccc(Cl)c3)cc2-c2c(C#N)c(=O)n3[nH]c(-c4ccccc4)nc3c2C#N)cc1	%	88.6
CCN(CC)c1ccc(/C=C2\SC(=O)C(Nc3nnc(-c4cccnc4SCc4ccccc4)o3)C2=O)cc1 (configuration not stated)	%	33.8
Nc1cc(-c2ccc(Cl)cc2)nn1-c1nc2ccccc2nc1Cc1ccccc1	%	100
CC(C)(C)OC(=O)CN1CCc2c(sc3ncnc(N/N=C/c4ccccc4Br)c23)C1	%	87.4

* * *

Entries and their growth
system: DU-145 prostate; assay: NCI-60 one-dose screen, 48 h (100 = growth as untreated, 0 = no growth, -100 = all killed); details: 10 µM
This is part of a sample that, as a whole, favours compounds with a hit. Of some 83,000 tested, about 20% had one in any assay.

sample-smiles	scale-unit	growth
Nc1ncc(-c2cnn(C3CCNCC3)c2)cc1-c1nc2ccccc2o1	%	15.2
O=C(O)c1ccc(-n2cc(CNc3ccc(Cl)cc3)c(-c3ccccc3)n2)cc1	%	95.7
C=CCn1c(SCC(=O)Nc2ccc(C(=O)/C=C/c3ccc(OC)cc3)cc2)nnc1-c1ccc(OC)c(OC)c1	%	97.7
CCOC(=O)c1cc(C(=O)c2cc(OC)c(OC)c(OC)c2)n2nc(C)ccc12	%	21.1
COc1cc2c(Nc3ccc(-c4ccc(N)cc4)cc3)ncnc2c(OC)c1OC	%	34.9

* * *

test system: SK-MEL-28 melanoma; assay: NCI-60 one-dose screen, 48 h; conditions: 10 µM
About 83,000 compounds went through this panel and 20% of them were active in at least one assay; those are over-represented in the sample as a whole. The source made the active and inactive calls. Rule for the calls: active = growth percent below 10; inactive = the rest.
Outcome codes: label 1 for active, label 0 for inactive

compound	class-assignment
CCCCCCCCCCCC[n+]1c(C)cc(N)c2ccccc21	label 0
O=C(Nc1ccc(OS(=O)(=O)c2ccccc2)cc1)C1CCCCC1	label 0
COc1ccc(-c2nn(-c3cccc(Cl)c3)cc2-c2c(C#N)c(=O)n3[nH]c(-c4ccccc4)nc3c2C#N)cc1	label 0
C/C=C/C1=CN2C(=O)c3cc(OC4OC(C)C(NC)C(C)(O)C4O)c(C)c(O)c3N=C[C@@H]2C1 (some centres undefined)	label 1
COc1cc(-c2nn(-c3cccc(NC(=O)CCNc4ccc(N5CCOCC5)cc4)c3)cc2-c2ccncc2)ccc1Cl	label 0
COc1ccc2nc(Cl)c(Cn3nnc(Cc4ccccc4)n3)cc2c1	label 0
C[C@]12CC[C@@H]3c4ccc(O)cc4CC[C@H]3[C@@H]1CC[C@@H]2NS(=O)(=O)c1ccc(C(F)(F)F)cc1	label 0
C=C1CCC2(C#N)[C@H]3[C@H](CC[C@@H]2C)[C@@H](C)C[C@@H](CC(C)(C)NC(=O)CN2CCC2=O)[C@H]13 (some centres undefined)	label 0
Oc1ccc(-c2[nH]c3ccccc3c2-c2nc3ccccc3o2)cc1	label 0

* * *

tested on: M14 melanoma; assay: NCI-60 one-dose screen, 48 h; conditions: 10 µM
This is part of a sample that, as a whole, favours compounds with a hit. Of some 83,000 tested, about 20% had one in any assay. The source made the active and inactive calls. Rule for the calls: active = growth percent below 10; inactive = the rest.
Outcomes: 1 (active), -1 (inactive)

compound	class-assignment
Fc1ccc2[nH]cc(-c3nc(-c4ccsc4)cs3)c2c1	-1
COc1ccc(C(=O)COc2cccc(/C=C3\Cc4ccccc4C3=O)c2)cc1	-1
O=C(CCCSc1nc(-c2ccc(Cl)cc2)cc(-c2ccc(Cl)cc2)n1)NO	1
CN(C)c1nc(N)c2nccnc2n1	-1
Cc1[nH]c2ccccc2c1/C=N/Nc1ncnc2sc3c(c12)CCN(CC(=O)OC(C)(C)C)C3	-1
O=C1c2ccccc2C(=O)c2c1ccc1c(=O)n(-c3ccccc3C(F)(F)F)nnc21	1
CNS(=O)(=O)Oc1ccc(-c2sc3cc(OS(=O)(=O)NC)ccc3c2C(=O)c2ccc(OCCN3CCCCC3)cc2)cc1	-1
COc1cc(-c2csc(NC(=O)Nc3cc(C(F)(F)F)cc(C(F)(F)F)c3)n2)cc(OC)c1OC	-1
Nc1nc(N)c(N)c(Nc2ccc(CCO)cc2)n1	-1
COc1ccc(-c2nc(-c3nc4ccc(C)cc4[nH]3)cc3c2[nH]c2ccccc23)cc1	-1
COc1cc(-c2ccc[nH]2)[nH]c1/C=C1\N=C(C)C(C(=O)NC(C)C)=C1C	1
COc1ccc(-c2nn(-c3cccc(Cl)c3)cc2C=C(C#N)C#N)cc1	1
CCN1CCN(CCC(=O)Nc2cccc(-n3cc(-c4ccncc4)c(-c4ccc(Cl)c(OC)c4)n3)c2)CC1	1
CC(C)=CCC/C(C)=C/CC/C(C)=C/CC/C=C(\C)CC/C=C(\C)CCC(=O)Nc1ccn(C2OC(CO)C(O)C2(F)F)c(=O)n1 (centres undefined)	1
CCCCCCCCCCCCCCCCCC[n+]1ccc2c(C)c3c(c(C)c2c1)c1cc(O)ccc1n3CC	1
CSc1ccc(-c2cc(-c3ccc(NC(=O)CCCN4CCCC4)cc3)nc(-c3ccc(NC(=O)CCCN4CCCC4)cc3)c2)cc1	-1
CCOC(=O)/C(=C(\C)N)C1CC(=O)NC1=O (centres undefined)	-1
CC(C)(C)OC(=O)N1CCc2c(sc3ncnc(N/N=C/c4cccc5ccccc45)c23)C1	-1
CC(C)(C)OC(=O)N1CCc2c(sc3ncnc(N/N=C/c4ccccc4Br)c23)C1	-1
